- MEASURED ON: SOS1 (Homo sapiens, UniProt Q07889)
- Sequence (Q07889 1-1333): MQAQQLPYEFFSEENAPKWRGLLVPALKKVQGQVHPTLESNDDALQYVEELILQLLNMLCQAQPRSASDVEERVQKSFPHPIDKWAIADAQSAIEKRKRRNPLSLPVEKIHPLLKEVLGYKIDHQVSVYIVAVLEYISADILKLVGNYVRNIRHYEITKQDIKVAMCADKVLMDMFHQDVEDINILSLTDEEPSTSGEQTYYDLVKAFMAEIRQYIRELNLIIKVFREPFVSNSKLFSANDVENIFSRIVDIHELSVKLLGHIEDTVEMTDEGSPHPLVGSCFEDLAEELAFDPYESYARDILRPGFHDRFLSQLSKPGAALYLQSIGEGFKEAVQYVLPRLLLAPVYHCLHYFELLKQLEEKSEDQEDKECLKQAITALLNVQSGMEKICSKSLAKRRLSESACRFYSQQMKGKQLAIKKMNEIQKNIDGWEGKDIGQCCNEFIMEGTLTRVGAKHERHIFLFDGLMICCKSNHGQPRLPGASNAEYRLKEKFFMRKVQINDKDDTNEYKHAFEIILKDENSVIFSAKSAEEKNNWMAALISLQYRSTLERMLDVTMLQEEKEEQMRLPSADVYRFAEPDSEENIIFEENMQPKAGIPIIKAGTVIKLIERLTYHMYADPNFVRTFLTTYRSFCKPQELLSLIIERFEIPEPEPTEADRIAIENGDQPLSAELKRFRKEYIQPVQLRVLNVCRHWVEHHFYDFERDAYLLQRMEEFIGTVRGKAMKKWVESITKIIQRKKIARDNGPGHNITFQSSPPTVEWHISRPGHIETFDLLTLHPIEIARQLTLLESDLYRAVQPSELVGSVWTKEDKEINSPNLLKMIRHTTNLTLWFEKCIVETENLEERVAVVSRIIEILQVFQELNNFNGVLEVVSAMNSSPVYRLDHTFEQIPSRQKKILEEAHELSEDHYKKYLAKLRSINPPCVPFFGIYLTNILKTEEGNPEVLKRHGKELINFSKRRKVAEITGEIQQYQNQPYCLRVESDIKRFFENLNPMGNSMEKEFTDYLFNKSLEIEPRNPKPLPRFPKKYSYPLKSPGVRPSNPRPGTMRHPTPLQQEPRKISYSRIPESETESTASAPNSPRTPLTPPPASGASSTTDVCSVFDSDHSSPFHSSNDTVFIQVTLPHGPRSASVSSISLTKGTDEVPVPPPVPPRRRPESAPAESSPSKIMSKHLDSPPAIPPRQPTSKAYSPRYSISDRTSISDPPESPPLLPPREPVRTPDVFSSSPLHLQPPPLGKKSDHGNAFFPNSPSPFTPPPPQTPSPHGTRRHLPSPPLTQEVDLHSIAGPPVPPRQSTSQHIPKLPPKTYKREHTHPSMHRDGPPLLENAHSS
Structures can show the parent of a compound that is named as a salt.
Our labelling divides records by IC50 into ranges: lower range = under 6 nM, middle range = from 6 nM up to 10 nM, upper range = 10 nM and over

These recorded examples may help you get a feel for the data.
{"COMPOUND": "Cc1c(C#N)cccc1[C@@H](C)Nc1nnc(N2CCC2)c2cc(=O)n(C3(C)CC3)cc12", "CLASS ASSIGNMENT": "middle range"}
{"COMPOUND": "C[C@@H]1CCCN1c1nnc(N[C@H](C)c2cccc(C(F)F)c2F)c2cn(C3CC3)c(=O)cc12", "CLASS ASSIGNMENT": "upper range"}
{"COMPOUND": "Cc1cc(N)cc([C@@H](C)Nc2nnc(N3CCN(C4CC4)CC3)c3cc(=O)n(C4(C)CC4)cc23)c1F", "CLASS ASSIGNMENT": "middle range"}
{"COMPOUND": "C[C@@H](Nc1nnc(N2CC3CCC(C2)O3)c2cc(=O)n(C3(C)CC3)cc12)c1cccc(C(F)F)c1F", "CLASS ASSIGNMENT": "upper range"}
{"COMPOUND": "C[C@@H](Nc1nnc(-n2nccn2)c2cc(=O)n(C3CC3)cc12)c1cccc(C(F)F)c1F", "CLASS ASSIGNMENT": "upper range"}
{"COMPOUND": "C[C@@H](Nc1nnc(NCC(F)F)c2cc(=O)n(C3(C)CC3)cc12)c1cccc(C(F)F)c1F", "CLASS ASSIGNMENT": "middle range"}

q: For this compound, which bin applies? Cc1c([C@@H](C)Nc2nnc(N(C)C)c3cc(=O)n(C4(C)CC4)cc23)cccc1C(F)(F)F
a: upper range

q: One more compound: C[C@@H](Nc1nnc(N2CC(F)(F)C2)c2cc(=O)n(C3(C)CC3)cc12)c1cccc(C(F)F)c1F
a: upper range

q: One more compound: Cc1c(C#N)cccc1[C@@H](C)Nc1nnc(N2CCCC2)c2cc(=O)n(C3(C)CC3)cc12
a: middle range

q: One more compound: C[C@@H](Nc1nnc(N2CC3CC2CO3)c2cc(=O)n(C3(C)CC3)cc12)c1cccc(C(F)F)c1F (stereo partly drawn)
a: lower range

q: One more compound: C[C@@H](Nc1nnc(-n2cccn2)c2cc(=O)n(C3(C)CC3)cc12)c1cccc(C(F)F)c1F
a: upper range

q: One more compound: C[C@@H](Nc1nnc(N2CCN3CCCCC3C2)c2cc(=O)n(C3(C)CC3)cc12)c1cccc(C(F)F)c1F (stereo partly drawn)
a: lower range

q: One more compound: C[C@@H](Nc1nnc(NC2CN3CCC2CC3)c2cc(=O)n(C3(C)CC3)cc12)c1cccc(C(F)F)c1F (stereo partly drawn)
a: middle range

q: One more compound: Cc1c([C@@H](C)Nc2nnc(N3CCC(F)(F)CC3)c3cc(=O)n(C4(C)CC4)cc23)cccc1C(F)(F)F
a: upper range

q: One more compound: C[C@@H](Nc1nnc(N(C)CCN(C)C)c2cc(=O)n(C3(C)CC3)cc12)c1cccc(C(F)F)c1F [Example 124, formate]
a: lower range
